- TARGET_OR_TEST_SYSTEM: ScRR1 (Saccharomyces cerevisiae, UniProt P21524, Q288A)
- Sequence (P21524 whole entry Q288A): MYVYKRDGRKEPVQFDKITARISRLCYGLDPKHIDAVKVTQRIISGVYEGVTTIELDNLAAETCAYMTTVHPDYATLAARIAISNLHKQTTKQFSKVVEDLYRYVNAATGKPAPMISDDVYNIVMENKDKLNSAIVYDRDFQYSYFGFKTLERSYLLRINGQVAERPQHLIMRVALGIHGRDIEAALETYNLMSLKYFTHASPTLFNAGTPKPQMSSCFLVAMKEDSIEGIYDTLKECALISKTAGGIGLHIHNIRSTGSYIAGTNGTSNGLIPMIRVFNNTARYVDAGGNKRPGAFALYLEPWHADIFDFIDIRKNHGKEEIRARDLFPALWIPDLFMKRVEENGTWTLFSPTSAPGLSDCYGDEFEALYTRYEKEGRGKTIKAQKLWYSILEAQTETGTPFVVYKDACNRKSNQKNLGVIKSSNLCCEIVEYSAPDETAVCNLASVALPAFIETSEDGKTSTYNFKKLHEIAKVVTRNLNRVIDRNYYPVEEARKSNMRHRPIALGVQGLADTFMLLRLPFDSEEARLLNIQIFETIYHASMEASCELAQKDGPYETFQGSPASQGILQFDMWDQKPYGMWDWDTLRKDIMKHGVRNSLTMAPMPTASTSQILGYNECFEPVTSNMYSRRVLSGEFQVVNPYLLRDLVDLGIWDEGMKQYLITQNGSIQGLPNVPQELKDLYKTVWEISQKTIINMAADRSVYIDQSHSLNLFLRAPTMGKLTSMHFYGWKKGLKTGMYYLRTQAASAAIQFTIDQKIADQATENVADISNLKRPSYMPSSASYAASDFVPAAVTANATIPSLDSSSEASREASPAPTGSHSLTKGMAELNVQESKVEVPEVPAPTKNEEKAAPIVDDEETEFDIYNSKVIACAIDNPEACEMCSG
- TEST_NAME: isothermal titration calorimetry
PARAMETER: Kd (nM)
Give bare numbers, in nM.

Task item: Request body: readout Kd, system ScRR1 (Saccharomyces cerevisiae, UniProt P21524, Q288A), query Nc1nc2c(ncn2[C@H]2C[C@H](O)[C@@H](COP(=O)(O)OP(=O)(O)OP(=O)(O)O)O2)c(=O)[nH]1 . Return the value.
Reply: 520

###

- TARGET_OR_TEST_SYSTEM: ScRR1 (Saccharomyces cerevisiae, UniProt P21524, R293A)
- Sequence (P21524 whole entry R293A): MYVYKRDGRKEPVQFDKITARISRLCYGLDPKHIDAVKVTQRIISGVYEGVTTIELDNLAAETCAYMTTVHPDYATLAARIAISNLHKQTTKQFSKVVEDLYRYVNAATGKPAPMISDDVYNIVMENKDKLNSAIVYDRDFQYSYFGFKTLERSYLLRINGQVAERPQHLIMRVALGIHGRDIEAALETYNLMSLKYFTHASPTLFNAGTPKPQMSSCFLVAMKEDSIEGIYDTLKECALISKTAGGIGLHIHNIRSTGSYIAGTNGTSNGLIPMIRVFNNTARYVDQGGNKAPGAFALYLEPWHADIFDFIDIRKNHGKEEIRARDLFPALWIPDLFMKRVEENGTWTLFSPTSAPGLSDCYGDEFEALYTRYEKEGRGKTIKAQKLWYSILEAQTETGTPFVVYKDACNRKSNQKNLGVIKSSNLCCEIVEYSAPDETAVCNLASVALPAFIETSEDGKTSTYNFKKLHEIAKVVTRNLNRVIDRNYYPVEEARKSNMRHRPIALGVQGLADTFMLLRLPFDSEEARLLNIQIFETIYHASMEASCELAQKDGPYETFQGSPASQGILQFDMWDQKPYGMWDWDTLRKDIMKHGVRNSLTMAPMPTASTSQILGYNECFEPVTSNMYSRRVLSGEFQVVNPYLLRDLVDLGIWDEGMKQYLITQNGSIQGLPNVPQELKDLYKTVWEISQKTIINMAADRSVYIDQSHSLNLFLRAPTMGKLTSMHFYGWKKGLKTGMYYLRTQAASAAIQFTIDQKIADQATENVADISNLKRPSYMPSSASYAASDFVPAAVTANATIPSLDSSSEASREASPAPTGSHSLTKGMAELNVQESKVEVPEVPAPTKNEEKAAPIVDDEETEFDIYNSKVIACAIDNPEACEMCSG
- TEST_NAME: isothermal titration calorimetry
PARAMETER: Kd (nM)
Answers are plain numbers, in nM.

Task item: Please give the measured Kd for this molecule: Nc1nc2c(ncn2[C@H]2C[C@H](O)[C@@H](COP(=O)(O)OP(=O)(O)OP(=O)(O)O)O2)c(=O)[nH]1
Reply: 570

###

- TARGET_OR_TEST_SYSTEM: UniProt:P21524
PARAMETER: Kd (µM)
Numbers only, in µM.

Task item: Please give the measured Kd for this compound: Nc1nc2c(ncn2[C@H]2C[C@H](O)[C@@H](COP(=O)(O)OP(=O)(O)OP(=O)(O)O)O2)c(=O)[nH]1 [dGTP]
Reply: 0.27

Values were extracted from paper PMC3589814.
